Tested on: Candida albicans
EXPERIMENT_DESCRIPTION: Antifungal activity against Candida albicans assessed as diameter of growth zone inhibition at 250 ug/ml after 72 hrs by disc diffusion technique
Assay type: functional
RECORDED_CONDITIONS: read-out: DIZ
QUANTITY_MEASURED: zone of inhibition at 250 µg/mL (mm)
All answers are understood in mm, so give the number only.

The value of zone of inhibition at 250 µg/mL measured for the compound COc1ccc([C@H]2O[C@@H]2C(=O)c2ccc(-c3ccccc3)cc2)cc1 turned out to be 20

Memo: O=C(c1ccc(-c2ccccc2)cc1)[C@H]1O[C@@H]1c1ccc(Cl)cc1 , reported zone of inhibition at 250 µg/mL: 8

// zone of inhibition at 250 µg/mL lookup, compound = O=C(c1ccc(-c2ccccc2)cc1)[C@H]1O[C@@H]1c1cccc(Br)c1 , result: 20

According to the records, this compound O=C(c1ccc(-c2ccccc2)cc1)[C@H]1O[C@@H]1c1ccc(O)cc1 displays zone of inhibition at 250 µg/mL of 20

Reported zone of inhibition at 250 µg/mL for CN(C)c1ccc([C@H]2O[C@@H]2C(=O)c2ccc(-c3ccccc3)cc2)cc1 was 8

* * *

Test system: Pseudomonas
EXPERIMENT_DESCRIPTION: Antibacterial activity against Pseudomonas assessed as diameter of growth zone inhibition at 250 ug/ml after 24-45 hrs by disc diffusion technique
Format: functional
RECORDED_CONDITIONS: read-out: DIZ
QUANTITY_MEASURED: zone of inhibition at 250 µg/mL

Entry O=C(c1ccc(-c2ccccc2)cc1)[C@H]1O[C@@H]1c1cccc(Cl)c1 — recorded zone of inhibition at 250 µg/mL = 13 mm

GET /value?item= CN(C)c1ccc([C@H]2O[C@@H]2C(=O)c2ccc(-c3ccccc3)cc2)cc1 &field=zone of inhibition at 250 µg/mL returns 20 mm

Please fill in: zone of inhibition at 250 µg/mL reported for Cc1ccc([C@H]2O[C@@H]2C(=O)c2ccc(-c3ccccc3)cc2)cc1 = 13 mm

Briefly, zone of inhibition at 250 µg/mL measured for Nc1cccc([C@H]2O[C@@H]2C(=O)c2ccc(-c3ccccc3)cc2)c1 : 13 mm

Looking up O=C(c1ccc(-c2ccccc2)cc1)[C@H]1O[C@@H]1c1ccc(Cl)cc1 , I see its zone of inhibition at 250 µg/mL listed as 13 mm

Item: O=C(c1ccc(-c2ccccc2)cc1)[C@H]1O[C@@H]1c1ccccc1 | zone of inhibition at 250 µg/mL: 8 mm

Looking up O=C(c1ccc(-c2ccccc2)cc1)[C@H]1O[C@@H]1c1ccc([N+](=O)[O-])cc1 , I found its zone of inhibition at 250 µg/mL recorded as 13 mm

For reference, reported zone of inhibition at 250 µg/mL for O=C(c1ccc(-c2ccccc2)cc1)[C@H]1O[C@@H]1c1ccccc1[N+](=O)[O-] stands at 13 mm

* * *

Tested on: Staphylococcus aureus
EXPERIMENT_DESCRIPTION: Antibacterial activity against Staphylococcus aureus assessed as diameter of growth zone inhibition at 250 ug/ml after 24-45 hrs by disc diffusion technique
Assay type: functional
RECORDED_CONDITIONS: read-out: DIZ
QUANTITY_MEASURED: zone of inhibition at 250 µg/mL (mm)
Your answer is read as mm, so omit the unit and give the number.

Sure, the documented zone of inhibition at 250 µg/mL for O=C(c1ccc(-c2ccccc2)cc1)[C@H]1O[C@@H]1c1ccccc1[N+](=O)[O-] is 13

Just so you know, measured zone of inhibition at 250 µg/mL for O=C(c1ccc(-c2ccccc2)cc1)[C@H]1O[C@@H]1c1cccc([N+](=O)[O-])c1 came out at 13

Recorded result, Nc1cccc([C@H]2O[C@@H]2C(=O)c2ccc(-c3ccccc3)cc2)c1 , zone of inhibition at 250 µg/mL: 20

* * *

System: Staphylococcus aureus
EXPERIMENT_DESCRIPTION: Antibacterial activity against Staphylococcus aureus assessed as diameter of growth zone inhibition at 250 ug/ml after 24-45 hrs by disc diffusion technique
Format: functional
RECORDED_CONDITIONS: read-out: DIZ
QUANTITY_MEASURED: zone of inhibition at 250 µg/mL
Provide the measurement as a number trailed by its unit.

The compound O=C(c1ccc(-c2ccccc2)cc1)[C@H]1O[C@@H]1c1cccc(Br)c1 showed zone of inhibition at 250 µg/mL equal to 13 mm

zone of inhibition at 250 µg/mL reported for this compound Cc1ccc([C@H]2O[C@@H]2C(=O)c2ccc(-c3ccccc3)cc2)cc1 : 8 mm

zone of inhibition at 250 µg/mL recorded for this compound, O=C(c1ccc(-c2ccccc2)cc1)[C@H]1O[C@@H]1c1ccc(Cl)cc1 , is 13 mm

Value of zone of inhibition at 250 µg/mL reported for the compound Nc1ccc([C@H]2O[C@@H]2C(=O)c2ccc(-c3ccccc3)cc2)cc1 is 20 mm

zone of inhibition at 250 µg/mL reported for this compound O=C(c1ccc(-c2ccccc2)cc1)[C@H]1O[C@@H]1c1ccc([N+](=O)[O-])cc1 : 13 mm

Just so you know, measured zone of inhibition at 250 µg/mL for CN(C)c1ccc([C@H]2O[C@@H]2C(=O)c2ccc(-c3ccccc3)cc2)cc1 came out at 20 mm

// recorded zone of inhibition at 250 µg/mL for O=C(c1ccc(-c2ccccc2)cc1)[C@H]1O[C@@H]1c1cccc(Cl)c1 : 13 mm

// zone of inhibition at 250 µg/mL lookup, compound = O=C(c1ccc(-c2ccccc2)cc1)[C@H]1O[C@@H]1c1ccc(O)cc1 , result: 13 mm

Field zone of inhibition at 250 µg/mL (entry O=C(c1ccc(-c2ccccc2)cc1)[C@H]1O[C@@H]1c1ccccc1 ) reads 8 mm

Data point: COc1ccc([C@H]2O[C@@H]2C(=O)c2ccc(-c3ccccc3)cc2)cc1 ; zone of inhibition at 250 µg/mL = 13 mm
